Just for reference, ChEMBL document CHEMBL2417420 is where these values come from.

- TARGET_OR_TEST_SYSTEM: Autotaxin (Homo sapiens, UniProt Q13822)
- ASSAY_EXPLANATION: Inhibition of C-terminal FLAG-tagged human recombinant autotaxin using synthetic substrate FS-3 measured every 2 mins by FRET assay
READOUT_LABEL: pIC50
Note: pIC50 values are expressed as the negative base-10 logarithm of concentration in M.

CC(O)C(NC(=O)c1ccc(N2CCC(CCCC3CCN(C(=O)CCC(=O)c4ccccc4)CC3)CC2)nc1)C(N)=O (stereo not drawn) = 6.05
Cc1cc(C)cc(CC(=O)N2CCC(CCCC3CCN(c4ccc(C(=O)NC(C(N)=O)C(C)O)cn4)CC3)CC2)c1 (stereo not drawn) = 6.05

Read the next record carefully.
For CC(O)C(NC(=O)c1ccc(N2CCC(CCCC3CCN(C(=O)Cc4ccc(-c5ccccc5)cc4)CC3)CC2)nc1)C(N)=O (stereo not drawn) , what is its reported pIC50?
6.05
